Record form. Attribute: In vitro activity (%) vs. GLP-1, cAMP EC50. Fill in for each entry.
Molecular target: human GLP-1 receptor (human, UniProt P43220 24-463)
Test: cell-based or functional assay
Bridges are numbered along the chain shown (N, C = ends). Where no end group is shown, it is not given here. [ ]: non-standard residue; d: D form. The star is where a group is joined. Acetyl(2-(4-imidazolyl)) = O=C(Cc1c[nH]cn1)*; Aib = CC(C)(N)C(=O)O
Give bare numbers, in %.

Example cases with answers are listed next.
| Binder | Numeric Readout |
| --- | --- |
| Y[Aib]QGTFTSDYSKALDEKAAKEFVNWLLDQHPSSGQPPPSC (bridge 16-20) [triple agonist of SEQ ID NO: 101] | 23.2 |
| {Acetyl(2-(4-imidazolyl))}-[Aib]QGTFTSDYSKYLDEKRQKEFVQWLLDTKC (bridge 15-19) [triple agonist of SEQ ID NO: 89] | 7.1 |
| {Acetyl(2-(4-imidazolyl))}-[Aib]QGTFTSDYSIAMDEIHQKDFVNWLLNTC (bridge 15-19) [triple agonist of SEQ ID NO: 87] | 0.9 |

For each of the items listed, what is its In vitro activity (%) vs. GLP-1, cAMP EC50?
1. Y[Aib]QGTFTSDYSKCLDERAAKEFVQWLLDHHPSSGQPPPS (bridge 16-20; ends not checked) [triple agonist of SEQ ID NO: 69]
2. [Acetyl(2-(4-imidazolyl))][Aib]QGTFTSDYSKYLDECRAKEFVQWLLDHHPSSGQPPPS (bridge 16-20; ends not checked) [triple agonist of SEQ ID NO: 73]
3. H[Aib]QGTFTSDVSKYLDGQAAQEFVAWLLAGGGPSSGAPPPSC [triple agonist of SEQ ID NO: 10]
4. Y[Aib]QGTFTSDYSKYLDECRAKEFVQWLLAQKGKKNDWKHNIT (bridge 16-20) [triple agonist of SEQ ID NO: 23]
5. {Acetyl(2-(4-imidazolyl))}-[Aib]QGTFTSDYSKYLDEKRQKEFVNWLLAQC (bridge 15-19) [triple agonist of SEQ ID NO: 86]
6. H[Aib]QGTFTSDYSIAMDEIHQKDFVNWLLNTKC (bridge 16-20) [triple agonist of SEQ ID NO: 35]

a:
1: 24.3; 2: 22.6; 3: 46; 4: 4.01; 5: 28.4; 6: 7.5

For each of the items listed, what is its In vitro activity (%) vs. GLP-1, cAMP EC50?
1. {Acetyl(2-(4-imidazolyl))}-[Aib]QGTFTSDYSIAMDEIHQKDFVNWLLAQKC (bridge 15-19) [triple agonist of SEQ ID NO: 92]
2. H[Aib]QGTFTSDVSSYLDGQAQKEFIAWLVKGC [triple agonist of SEQ ID NO: 2]

a:
1. 0.8
2. 5.9
